The binders listed here are annotated with their Kd.
Molecular target: T1, human IL-6 (human, UniProt P05231 30-212)
T1 construct: also called interleukin-6
T1 sequence (P05231 30-212 limits assumed): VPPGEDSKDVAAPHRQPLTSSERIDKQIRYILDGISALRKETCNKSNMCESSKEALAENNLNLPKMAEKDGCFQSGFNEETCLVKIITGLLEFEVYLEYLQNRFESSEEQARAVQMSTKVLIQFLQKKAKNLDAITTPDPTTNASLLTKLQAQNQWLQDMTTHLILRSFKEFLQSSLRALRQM
Assay: SPR (Biacore T200), antibody from cell supernatant captured on Protein A, IL-6 flowed over, 37 C
Readout Name: Kd (nM)

Binder: anti-IL-6 antibody, heavy chain T65W, G66D / light chain WT (antibody, human IgG1, V domains shown, Derived as m2; Engineered human IgG1) VH: EVQLVESGGGLVQPGGSLRLSCAASGFTFSPFAMSWVRQAPGKGLEWVAKISPGGSWTYYSDTVWDRFTFSLDTSKSTAYLQMNSLRAEDTAVYYCARQLWGYYALDIWGQGTLVTVSS VL: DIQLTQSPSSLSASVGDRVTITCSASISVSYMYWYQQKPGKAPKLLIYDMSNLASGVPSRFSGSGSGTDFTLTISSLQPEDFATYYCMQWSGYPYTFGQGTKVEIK
Units Symbol: nM
Test Value: 0.226
//
Binder: anti-IL-6 antibody, heavy chain T63G, G66D / light chain WT (antibody, human IgG1, V domains shown, Derived as m2; Engineered human IgG1) VH: EVQLVESGGGLVQPGGSLRLSCAASGFTFSPFAMSWVRQAPGKGLEWVAKISPGGSWTYYSDGVTDRFTFSLDTSKSTAYLQMNSLRAEDTAVYYCARQLWGYYALDIWGQGTLVTVSS VL: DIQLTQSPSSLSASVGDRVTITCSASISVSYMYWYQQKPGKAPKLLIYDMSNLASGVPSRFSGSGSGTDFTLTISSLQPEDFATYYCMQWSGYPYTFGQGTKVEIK
Units Symbol: nM
Test Value: 0.213
//
Binder: anti-IL-6 antibody, heavy chain T63L, G66D / light chain WT (antibody, human IgG1, V domains shown, Derived as m2; Engineered human IgG1) VH: EVQLVESGGGLVQPGGSLRLSCAASGFTFSPFAMSWVRQAPGKGLEWVAKISPGGSWTYYSDLVTDRFTFSLDTSKSTAYLQMNSLRAEDTAVYYCARQLWGYYALDIWGQGTLVTVSS VL: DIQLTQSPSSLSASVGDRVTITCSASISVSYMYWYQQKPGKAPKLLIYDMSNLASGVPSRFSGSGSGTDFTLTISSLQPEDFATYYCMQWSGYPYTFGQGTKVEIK
Units Symbol: nM
Test Value: 0.21
//
Binder: anti-IL-6 antibody, heavy chain T63A, G66D / light chain WT (antibody, human IgG1, V domains shown, Derived as m2; Engineered human IgG1) VH: EVQLVESGGGLVQPGGSLRLSCAASGFTFSPFAMSWVRQAPGKGLEWVAKISPGGSWTYYSDAVTDRFTFSLDTSKSTAYLQMNSLRAEDTAVYYCARQLWGYYALDIWGQGTLVTVSS VL: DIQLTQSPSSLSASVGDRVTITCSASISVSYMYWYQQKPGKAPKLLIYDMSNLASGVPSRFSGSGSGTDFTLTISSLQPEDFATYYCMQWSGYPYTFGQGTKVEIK
Units Symbol: nM
Test Value: 0.177
//
Binder: anti-IL-6 antibody, heavy chain I51F, G66D / light chain WT (antibody, human IgG1, V domains shown, Derived as m2; Engineered human IgG1) VH: EVQLVESGGGLVQPGGSLRLSCAASGFTFSPFAMSWVRQAPGKGLEWVAKFSPGGSWTYYSDTVTDRFTFSLDTSKSTAYLQMNSLRAEDTAVYYCARQLWGYYALDIWGQGTLVTVSS VL: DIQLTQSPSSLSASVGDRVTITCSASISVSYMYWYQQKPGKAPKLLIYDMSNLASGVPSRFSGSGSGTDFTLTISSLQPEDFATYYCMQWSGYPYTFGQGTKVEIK
Units Symbol: nM
Test Value: 2.24
//
Binder: anti-IL-6 antibody, heavy chain T63Y, G66D / light chain WT (antibody, human IgG1, V domains shown, Derived as m2; Engineered human IgG1) VH: EVQLVESGGGLVQPGGSLRLSCAASGFTFSPFAMSWVRQAPGKGLEWVAKISPGGSWTYYSDYVTDRFTFSLDTSKSTAYLQMNSLRAEDTAVYYCARQLWGYYALDIWGQGTLVTVSS VL: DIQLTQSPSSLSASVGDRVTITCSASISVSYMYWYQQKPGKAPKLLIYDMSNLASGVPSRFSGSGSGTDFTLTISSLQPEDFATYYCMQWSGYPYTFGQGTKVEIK
Units Symbol: nM
Test Value: 0.21
//
Binder: anti-IL-6 antibody, heavy chain T65K, G66D / light chain WT (antibody, human IgG1, V domains shown, Derived as m2; Engineered human IgG1) VH: EVQLVESGGGLVQPGGSLRLSCAASGFTFSPFAMSWVRQAPGKGLEWVAKISPGGSWTYYSDTVKDRFTFSLDTSKSTAYLQMNSLRAEDTAVYYCARQLWGYYALDIWGQGTLVTVSS VL: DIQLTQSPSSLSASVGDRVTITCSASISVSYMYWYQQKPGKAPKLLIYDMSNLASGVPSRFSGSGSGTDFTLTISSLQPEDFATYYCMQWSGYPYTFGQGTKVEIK
Units Symbol: nM
Test Value: 0.262
//
Binder: anti-IL-6 antibody, heavy chain S35I, G66D / light chain WT (antibody, human IgG1, V domains shown, Derived as m2; Engineered human IgG1) VH: EVQLVESGGGLVQPGGSLRLSCAASGFTFSPFAMIWVRQAPGKGLEWVAKISPGGSWTYYSDTVTDRFTFSLDTSKSTAYLQMNSLRAEDTAVYYCARQLWGYYALDIWGQGTLVTVSS VL: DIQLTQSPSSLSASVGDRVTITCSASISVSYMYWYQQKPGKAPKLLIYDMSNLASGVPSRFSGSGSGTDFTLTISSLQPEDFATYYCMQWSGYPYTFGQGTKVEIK
Units Symbol: nM
Test Value: 0.334
//
Binder: anti-IL-6 antibody, heavy chain T63R, G66D / light chain WT (antibody, human IgG1, V domains shown, Derived as m2; Engineered human IgG1) VH: EVQLVESGGGLVQPGGSLRLSCAASGFTFSPFAMSWVRQAPGKGLEWVAKISPGGSWTYYSDRVTDRFTFSLDTSKSTAYLQMNSLRAEDTAVYYCARQLWGYYALDIWGQGTLVTVSS VL: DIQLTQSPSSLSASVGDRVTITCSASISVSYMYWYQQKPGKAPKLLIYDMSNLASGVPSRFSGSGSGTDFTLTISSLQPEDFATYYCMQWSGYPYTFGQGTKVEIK
Units Symbol: nM
Test Value: 0.173
//
Binder: anti-IL-6 antibody, heavy chain S35V, G66D / light chain WT (antibody, human IgG1, V domains shown, Derived as m2; Engineered human IgG1) VH: EVQLVESGGGLVQPGGSLRLSCAASGFTFSPFAMVWVRQAPGKGLEWVAKISPGGSWTYYSDTVTDRFTFSLDTSKSTAYLQMNSLRAEDTAVYYCARQLWGYYALDIWGQGTLVTVSS VL: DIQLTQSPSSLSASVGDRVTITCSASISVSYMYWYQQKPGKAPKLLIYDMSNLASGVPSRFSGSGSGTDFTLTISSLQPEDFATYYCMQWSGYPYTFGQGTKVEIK
Units Symbol: nM
Test Value: 0.414
